Where do the numbers come from? From PubChem BioAssay (NCI).

test: NCI Yeast Anticancer Drug Screen. Data for the sgs1 mgt1 strain (AID 161);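 further: 0% = growth of cultures given vehicle only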; settings: S. cerevisiae sgs1 mgt1 strain; at 50.0 µM unless noted
About 79,000 compounds went through this panel and 15% of them were active in at least one assay; those are over-represented in the sample as a whole. Activity calls are given as the source filed them. No stated cut-off is given here; in the data, active means growth inhibition above about 70%; inactive means the rest.
Classes used: t for active, f for inactive

* O=C(CCC1OCCO1)Nc1cc([N+](=O)[O-])ccc1OCc1ccccc1 | f
* NC(CSS(=O)(=O)O)=NCCCOCc1ccccc1 | f
* COc1cc2c3c([nH]c2c(OC)c1OC)CCN(Cc1ccccc1)C3 | f
* CN(C(=O)Nc1ccccc1)c1ccc(O)cc1 | f
* C=C1C(=O)O[C@@H]2O[C@@]3(C)CC[C@H]4[C@H](C)CC[C@@H]1[C@@]24O3 | f
* COc1cc(C(=O)NNC(=O)c2ccc(Cl)c(Cl)c2)cc(OC)c1OC | f
* CC(C)CCCC(C)C1CCC2C3CC=C4CC(OC(=O)Nc5ccc(S(=O)(=O)NC6CCCCC6)cc5)CCC4(C)C3CCC12C (stereo unspecified) | f
* O=C(Cc1csc2ccccc12)NCC1CC1 | f
* CC12C(=C(C#N)C(=N)N1c1ccc(Cl)c(Cl)c1)C=C(O)CC2SCCS(=O)(=O)O (stereo unspecified) | f
* O=C(NCCO)c1c(O)c2ccccc2[nH]c1=O | f
* COc1ccc(NC(=S)N/N=C(\C)c2ccccn2)cc1 | t

---

experiment: NCI Yeast Anticancer Drug Screen. Data for the mlh1 rad18 strain (AID 175); settings: S. cerevisiae mlh1 rad18 strain growth inhibition; at 50.0 µM unless noted
Compounds without any hit were thinned out: in the full panel of roughly 79,000, 15% have a hit. Activity calls are given as the source filed them. Cut-off read from the data, not from the text of the source: active = growth inhibition above about 70%; inactive = the rest. Where a SMILES comes first, the peptide text is derived from it. The star is where a group is joined. Cbz = O=C(OCc1ccccc1)*; NHNH2 = NN*
Outcomes: 1.0 = active, 0.0 = inactive

• [Cu+2].[NH-]CC(=O)NC(Cc1ccccc1)C(=O)O.[NH-]CC(=O)NC(Cc1ccccc1)C(=O)O (centres undefined) = 0.0
• COC(=O)C1NC(=O)C(N2C(=O)c3ccccc3C2=O)=CSC1(C)C (centres undefined) = 0.0
• O=C1NC(=O)C(Cc2ccccc2)(c2cccnc2)N1 (centres undefined) = 0.0
• O=C(NNC(=O)c1ccc(Cl)c(Cl)c1)c1ccccc1 = 0.0
• CSc1cc(Cl)c(C(=O)Nc2ccccc2)cc1S(=O)(=O)n1cc[nH]c1=O = 0.0
• CON1C(=O)C(c2ccccc2)c2ccccc21 (centres undefined) = 0.0
• O=C1OC(C2OC(=O)C(=O)C2C2CCCCCCC2=O)C(C2CCCCCCC2=O)C1=O (centres undefined) = 0.0
• CNC(=O)N(C)Cc1ccccc1 = 0.0
• C=C1c2nc3ccccc3n2C=C(c2ccc(C)cc2)N1c1ccc(C)cc1 = 0.0
• CC(O)COC(C)C (centres undefined) = 0.0
• CSC(=S)OC(C)CC(C)C (centres undefined) = 0.0
• CCC(=O)CC(=O)CCC(=O)Nc1ccc(Cl)cc1C = 0.0
• O=C(Cc1ccc([N+](=O)[O-])cc1)Nc1cccc(O)c1 = 0.0
• N=c1oc(-c2ccccc2)cc2ccccc12 = 0.0
• Cc1cc(NC(=O)C(=O)Cc2nc3ccccc3s2)ccc1Cl = 0.0
• CC(C)CCOC=O = 0.0
• COc1ccc(OC)c2[nH]c(Sc3c([N+](=O)[O-])ncn3C)nc12 = 0.0
• COC(C(=O)NN)c1ccccc1 (centres undefined) = 0.0
• COc1ccc(C(=O)NNC(=O)c2cccc3ccccc23)cc1 = 0.0
• O=c1cc(N2CCOCC2)n2ccccc2n1 = 0.0
• COc1cc(C(=O)N(C)C)cc(OC)c1OC = 0.0
• O=C(OCC1OCOC2C(COC(=O)c3ccccc3)OCOC12)c1ccccc1 (centres undefined) = 0.0
• Cc1ccc(S(=O)(=O)N2CCCSCC2)cc1 = 0.0
• CCc1nnc2c(C)c(C)nc(C)n12 = 0.0
• N/N=C1\CC2C3CC4(OCCO4)C4C3CC2C14 (centres undefined) = 0.0
• O=C(/C=C/c1ccccc1)c1ccc(I)cc1 = 0.0
• CC1=CCC2C(C)(C)CCCC2(C)C1COC1OC(OCC2C(C)=CCC3C(C)(C)CCCC23C)C2C1=CCC1C(C)(C)CCCC21C (centres undefined) = 1.0
• COC(=O)C1CCC(=O)N1Cc1cccs1 (centres undefined) = 0.0
• CCOC(=O)CCC(NC(=O)OCc1ccccc1)C(=O)NC(CCC(=O)OCC)C(=O)NN (centres undefined) (Cbz-Glu(OEt)-Glu(OEt)-NHNH2; configuration not given here) = 0.0
• O=Cc1c[nH]c2ccc(F)cc12 = 0.0
• COc1cc(C(CC(=O)O)C(=O)O)c([N+](=O)[O-])cc1OC (centres undefined) = 0.0
• CCO[C@@H]1OC(=O)[C@H]2C(c3ccc(Cl)cc3)=NO[C@@H]12 = 0.0
• CCCN(CCC)CC(O)c1ccc(Cl)c2ccccc12 (centres undefined) = 0.0
• Cn1c(=S)[nH]c2c(Cl)cc(Cl)cc2c1=O = 0.0
• C1CCCC(=NN=C2CCCCCCC2)CCC1 = 0.0
• CC(=O)c1cccc(N=NN(C)C)c1 = 0.0
• CCCCCCCCCCCCCCCCCCCCCCCCCCO = 0.0
• COc1cccc(/C=C/C(C)=N/NC(N)=O)c1 = 0.0
• O=[N+]([O-])c1ccn(Cc2ccccc2)c1 = 0.0
• O=P(O)(O)OCC1OC(n2cnc3c(=S)nc[nH]c32)C(O)C1O (centres undefined) = 0.0
• CCOC(=O)c1cccc(N)c1C(=O)OCCN(CC)CC = 0.0
• C=C(CC(O)(C(F)(F)F)C(F)(F)F)CC(O)(C(F)(F)F)C(F)(F)F = 1.0
• CC1(C)C2CC(C(=O)O)C1C2 (centres undefined) = 0.0
• N/N=C1/CCN2CCCc3cccc1c32 = 0.0
• CCc1ccc2c(c1)C(O)(C#Cc1ccccc1)c1cc(CC)ccc1C2(O)C#Cc1ccccc1 (centres undefined) = 0.0
• FC(F)(F)c1ccc(C2=CCCCC2)cc1 = 0.0
• O=C(CSc1n[nH]c(=S)c2nc[nH]c12)c1ccc(Br)cc1 = 0.0
• COc1ccc(NS(=O)c2ccccc2)cc1 (centres undefined) = 0.0
• CC(=O)NC(CCC(=O)O)C(=O)O (centres undefined) = 0.0

---

assay: NCI Yeast Anticancer Drug Screen. Data for the bub3 strain (AID 167); settings: S. cerevisiae bub3 mutant strain, at 50.0 µM (retest, dose inferred, filed as 5.0), active compounds read high
This is part of a sample that, as a whole, favours compounds with a hit. Of some 79,000 tested, about 15% had one in any assay.
Given measured growth inhibition, output Criterion met if it is greater than or equal to 70% and Criterion not met if not.

• CC(C)NC(=O)N/C=C(\C#N)C(N)=O = Criterion not met
• NN1CCOC(c2ccccc2)C1 (stereo not given) = Criterion not met
• CC(C)C(C)(C)c1ccc(O)cc1 = Criterion not met
• CCCCOC(=O)/C=C\C(=O)NC(N)=O = Criterion not met
• O=C(Cc1ccccc1)c1ccc(O)c(Cl)c1 = Criterion met
• O=C(O)/C=C\C(=O)Nc1cccc2ccccc12 = Criterion not met
• CC(=O)OC(C)C(=O)NCC(C)O (stereo not given) = Criterion not met
• Fc1ccc([I+]c2ccc(F)cc2)cc1 = Criterion met

---

experiment: NCI Yeast Anticancer Drug Screen. Data for the mec2-1 strain (AID 157); conditions: S. cerevisiae mec2-1 strain, active compounds read high; at 50.0 µM unless noted
The panel holds about 79,000 compounds, 15% with a hit somewhere; the sample as a whole holds those more often.
value.type: growth inhibition (%)

• CC1(C)C2CCC1(C)C(/C=N/NC(N)=O)C2 (stereo not given) = 17.8
• COC(=O)C(CCCCCCCC(C(=O)OC)c1nc2n(c1O)C(=N)N=N2)c1nc2n(c1O)C(=N)N=N2 (stereo not given) = -3.75
• c1ccc(-c2cn(-c3ccccc3)nn2)cc1 = -4.5
• COc1ccc(/C(Cc2ccccc2)=N/Nc2ccc([N+](=O)[O-])c([N+](=O)[O-])c2)cc1 = -8.15
• Cc1c2ccccc2nc(CS(C)(=O)=O)[n+]1[O-] = -1.8
• COc1ccccc1N=Nc1c(O)n(-c2ccccc2OC)c(=S)n(-c2ccccc2)c1=O = -3.45
• O=C(O)CCCC1CCC(=O)CC1 = -7.55
• COc1ccccc1C1OC(N)=C(O)C1=O (stereo not given) = -5.15
• O=C(NCCCOC(=O)CCCCCCCCC(=O)OCCCNC(=O)NC(=O)c1c[nH]c(=O)[nH]c1=O)NC(=O)c1c[nH]c(=O)[nH]c1=O = -18.6
• COC(=O)c1ccccc1NC(=O)c1c(-c2ccccc2Cl)noc1C = 67.8
